Entry source: ChEMBL document CHEMBL4834465

Listed compounds paired with reported CC50
# Test system: HepG2
# CONDITION_DESCRIPTION: human, hepg2, 48 h
METRIC_NAME: CC50

>>> print(df.to_string())
                                smiles_text  metric_name  test_result
0  Nc1ncnc2c1ncn2[C@@H]1O[C@H](C(=O)Nc2cccc(C(=O)O)c2)[C@@H](O)[C@H]1O         CC50     > 100 µM
1  Nc1ncnc2c1ncn2[C@@H]1O[C@H](C[C@@H](N)CC[C@H](N)C(=O)O)[C@@H](O)[C@H]1O         CC50     > 100 µM
2  Nc1ncnc2c1ncn2[C@@H]1O[C@H](CSCc2cccc(C(=O)O)c2)[C@@H](O)[C@H]1O         CC50     > 100 µM
3  Nc1ncnc2c1ncn2[C@@H]1O[C@H](CSCc2ccc3ccccc3c2)[C@@H](O)[C@H]1O         CC50     > 100 µM
4  Nc1ncnc2c1ncn2[C@@H]1O[C@H](CSCc2cc(O)[nH]n2)[C@@H](O)[C@H]1O         CC50     > 100 µM
5  Nc1ncnc2c1ncn2[C@@H]1O[C@H](CN(CCCC(=O)O)CCc2ccccc2)[C@@H](O)[C@H]1O         CC50     > 100 µM
6  Nc1ncnc2c1ncn2[C@@H]1O[C@H](CSCCc2c[nH]nn2)[C@@H](O)[C@H]1O         CC50     > 100 µM
7  Nc1ncnc2c1ncn2[C@@H]1O[C@H](CSc2cccc(C(=O)O)c2)[C@@H](O)[C@H]1O         CC50     > 100 µM
